tested on: BT-474 (Breast Carcinoma); assay: combination Emax (second highest fraction inhibited in the dose matrix, 72 h); higher = more inhibition; extreme values may be limits of the assay
measured.property: combination Emax
Would you mind answering with just the numeric figure?

Ask: Name the recorded combination Emax for CC1(C)CCC(CN2CCN(c3ccc(C(=O)NS(=O)(=O)c4ccc(NCC5CCOCC5)c([N+](=O)[O-])c4)c(Oc4cnc5[nH]ccc5c4)c3)CC2)=C(c2ccc(Cl)cc2)C1 [Venetoclax] + C1CN(CCC1(C(=O)N[C@@H](CCO)C2=CC=C(C=C2)Cl)N)C3=NC=NC4=C3C=CN4 [Capivasertib] (first compound max 1 µM, 7x7, partner max 3 µM) .
Reply: 0.383

Ask: Any idea what combination Emax was measured for CN(CCO)CC[C@H](CSc1ccccc1)Nc1ccc(S(=O)(=O)NC(=O)c2ccc(N3CCC([C@@H](O)c4ccccc4-c4ccc(Cl)cc4)CC3)cc2)cc1S(=O)(=O)C(F)(F)F [AZD4320] + CN(C)CCCOc1ccc(-c2ccc3ncc4c(c3c2)n(C2CCOCC2)c(=O)n4C)cn1 [AZD0156] (first compound max 1 µM, 7x7, partner max 1 µM) ?
Reply: 0.211

Ask: Consider the compound shown here: Cc1c2c(nn1C)CSCc1cc(n(C)n1)CSc1cc(c3ccccc3c1)OCCCc1c(C(=O)O)n(C)c3c-2c(Cl)ccc13 [AZD5991] + Cn1cnc2c(F)c(Nc3ccc(Br)cc3Cl)c(C(=O)NOCCO)cc21 [Selumetinib] (first compound max 1 µM, 7x7, partner max 3 µM) What is its recorded combination Emax?
Reply: 0.246

* * *

test system: BT-474 (Breast Carcinoma); test: Bliss excess, mean over the matrix (fraction); higher = more synergy
measured.property: Bliss excess
I only need the number, thanks.

Ask: Name the recorded Bliss excess for C[C@@H](c1ccc2nccn2c1)n1nnc2ncc(-c3cnn(C)c3)nc21 [Savolitinib] + Cc1c2c(nn1C)CSCc1cc(n(C)n1)CSc1cc(c3ccccc3c1)OCCCc1c(C(=O)O)n(C)c3c-2c(Cl)ccc13 [AZD5991] (first compound max 1 µM, 7x7, partner max 1 µM) .
Reply: -0.0595

Ask: // lookup Bliss excess for CC1(C)CCC(CN2CCN(c3ccc(C(=O)NS(=O)(=O)c4ccc(NCC5CCOCC5)c([N+](=O)[O-])c4)c(Oc4cnc5[nH]ccc5c4)c3)CC2)=C(c2ccc(Cl)cc2)C1 [Venetoclax] + C1CN(CCC1(C(=O)N[C@@H](CCO)C2=CC=C(C=C2)Cl)N)C3=NC=NC4=C3C=CN4 [Capivasertib] (first compound max 1 µM, 7x7, partner max 3 µM)
Reply: -0.0376

* * *

system: NCI-H835 (Other Solid Carcinomas); assay: Bliss excess, mean over the matrix (fraction); higher = more synergy
Kindly state Bliss excess for each of the entries shown.
Form field (numeric): enter value without unit.

Ask: GET /values?readout=Bliss excess&item= Cc1c2c(nn1C)CSCc1cc(n(C)n1)CSc1cc(c3ccccc3c1)OCCCc1c(C(=O)O)n(C)c3c-2c(Cl)ccc13 [AZD5991] + Nc1ccn([C@@H]2O[C@H](CO)[C@@H](O)C2(F)F)c(=O)n1 [Gemcitabine] (first compound max 1 µM, 7x7, partner max 0.3 µM)
Reply: 0.0842

Ask: Item C=CCn1c(=O)c2cnc(Nc3ccc(N4CCN(C)CC4)cc3)nc2n1-c1cccc(C(C)(C)O)n1 [AZD1775] + CCc1c2c(nc3ccc(O)cc13)-c1cc3c(c(=O)n1C2)COC(=O)[C@]3(O)CC [SN-38] (first compound max 1 µM, partner max 0.3 µM) has what recorded Bliss excess?
Reply: -0.0442

Ask: Any idea what Bliss excess was measured for C=CCn1c(=O)c2cnc(Nc3ccc(N4CCN(C)CC4)cc3)nc2n1-c1cccc(C(C)(C)O)n1 [AZD1775] + Nc1ccn([C@@H]2O[C@H](CO)[C@@H](O)C2(F)F)c(=O)n1 [Gemcitabine] (first compound max 1 µM, partner max 0.3 µM) ?
Reply: -0.0789

Ask: Which Bliss excess is listed for NC1(C(=O)N[C@@H](CCO)c2ccc(Cl)cc2)CCN(c2ncnc3[nH]ccc23)CC1 [Capivasertib] + C[C@@H]1COCCN1C2=NC(=NC(=C2)C3(CC3)[S@](=N)(=O)C)C4=C5C=CNC5=NC=C4 [AZD6738] (first compound max 10 µM, 7x7, partner max 10 µM) ?
Reply: -0.072

* * *

Exercise: state measured Bliss excess for each of the compounds provided.
system: NCI-H835 (Other Solid Carcinomas); assay: Bliss excess, mean over the matrix (fraction); higher = more synergy
Please respond with just the number, no unit label.

Ask: Consider the compound C[C@@H](c1ccc2nccn2c1)n1nnc2ncc(-c3cnn(C)c3)nc21 [Savolitinib] + CC1(C)CCC(CN2CCN(c3ccc(C(=O)NS(=O)(=O)c4ccc(NCC5CCOCC5)c([N+](=O)[O-])c4)c(Oc4cnc5[nH]ccc5c4)c3)CC2)=C(c2ccc(Cl)cc2)C1 [Venetoclax] (first compound max 1 µM, 7x7, partner max 1 µM) and give its measured Bliss excess.
Reply: -0.0355

Ask: Recorded Bliss excess of CS(=O)(=O)CCNCc1ccc(-c2ccc3ncnc(Nc4ccc(OCc5cccc(F)c5)c(Cl)c4)c3c2)o1 [Lapatinib] + NC1(c2ccc(-c3nc4ccn5c(=O)[nH]nc5c4cc3-c3ccccc3)cc2)CCC1 [MK-2206] (first compound max 10 µM, 7x7, partner max 10 µM) , please.
Reply: 0.0357

* * *

test system: SK-MEL-24 (Melanoma); test: combination Emax (second highest fraction inhibited in the dose matrix, 72 h); higher = more inhibition; extreme values may be limits of the assay
Mark label 0 for combination Emax values under 0.8, and label 1 for everything at or above.

Ask: Does the reported combination Emax for NC1(C(=O)N[C@@H](CCO)c2ccc(Cl)cc2)CCN(c2ncnc3[nH]ccc23)CC1 [Capivasertib] + CC(=O)c1c(C)c2cnc(Nc3ccc(N4CCNCC4)cn3)nc2n(C2CCCC2)c1=O [Palbociclib] (first compound max 10 µM, 7x7, partner max 10 µM) fall at or above the 0.8 mark?
Reply: label 0

Ask: Test whether the compound CN(C)CCCOc1ccc(-c2ccc3ncc4c(c3c2)n(C2CCOCC2)c(=O)n4C)cn1 [AZD0156] + C=CCn1c(=O)c2cnc(Nc3ccc(N4CCN(C)CC4)cc3)nc2n1-c1cccc(C(C)(C)O)n1 [AZD1775] (first compound max 1 µM, partner max 1 µM) records combination Emax of 0.8 or higher.
Reply: label 0

Ask: Is reported combination Emax greater than or equal to 0.8 here: CN(CCO)CC[C@H](CSc1ccccc1)Nc1ccc(S(=O)(=O)NC(=O)c2ccc(N3CCC([C@@H](O)c4ccccc4-c4ccc(Cl)cc4)CC3)cc2)cc1S(=O)(=O)C(F)(F)F [AZD4320] + Cn1cnc2c(F)c(Nc3ccc(Br)cc3Cl)c(C(=O)NOCCO)cc21 [Selumetinib] (first compound max 1 µM, 7x7, partner max 3 µM)
Reply: label 0

Ask: Assess whether reported combination Emax for CS(=O)(=O)CCNCc1ccc(-c2ccc3ncnc(Nc4ccc(OCc5cccc(F)c5)c(Cl)c4)c3c2)o1 [Lapatinib] + NC1(c2ccc(-c3nc4ccn5c(=O)[nH]nc5c4cc3-c3ccccc3)cc2)CCC1 [MK-2206] (first compound max 10 µM, 7x7, partner max 10 µM) sits at 0.8 or higher.
Reply: label 1

Ask: Kindly determine if combination Emax recorded for COc1cccc(OCCCN)c1-c1cc(Nc2cnc(C#N)cn2)n[nH]1 [Prexasertib] + CCc1c2c(nc3ccc(O)cc13)-c1cc3c(c(=O)n1C2)COC(=O)[C@]3(O)CC [SN-38] (first compound max 1 µM, 7x7, partner max 0.3 µM) is above or exactly 0.8.
Reply: label 1

Ask: Confirm if combination Emax reported for the compound COc1nnc2ccc(N3CCC(c4ccc(OCCN5CCN(C)C(=O)[C@H]5C)cc4)CC3)nn12 [AZD5153] + Cc1c2c(nn1C)CSCc1cc(n(C)n1)CSc1cc(c3ccccc3c1)OCCCc1c(C(=O)O)n(C)c3c-2c(Cl)ccc13 [AZD5991] (first compound max 1 µM, 7x7, partner max 1 µM) is 0.8 or above.
Reply: label 0

Ask: Determine whether this compound has combination Emax no lower than 0.8: CC1(C)CCC(CN2CCN(c3ccc(C(=O)NS(=O)(=O)c4ccc(NCC5CCOCC5)c([N+](=O)[O-])c4)c(Oc4cnc5[nH]ccc5c4)c3)CC2)=C(c2ccc(Cl)cc2)C1 [Venetoclax] + C=CCn1c(=O)c2cnc(Nc3ccc(N4CCN(C)CC4)cc3)nc2n1-c1cccc(C(C)(C)O)n1 [AZD1775] (first compound max 1 µM, partner max 1 µM)
Reply: label 0

* * *

test system: MG-63 (Osteosarcoma); assay: Bliss excess, mean over the matrix (fraction); higher = more synergy
Field: Bliss excess. Provide a value for each of the compounds that follow.
Output: the number by itself.

Ask: # input compound: Cc1cc2ncnn2cc1Nc1ncc2c(n1)n(C1CCOCC1)c(=O)n2C [AZD7648] + O=C(c1cc(Cc2n[nH]c(=O)c3ccccc23)ccc1F)N1CCN(C(=O)C2CC2)CC1 [Olaparib] (first compound max 10 µM, 7x7, partner max 10 µM) ; wanted: its Bliss excess
Reply: 0.0014

Ask: Fill in: Bliss excess of Cc1c2c(nn1C)CSCc1cc(n(C)n1)CSc1cc(c3ccccc3c1)OCCCc1c(C(=O)O)n(C)c3c-2c(Cl)ccc13 [AZD5991] + CC1(C)CCC(CN2CCN(c3ccc(C(=O)NS(=O)(=O)c4ccc(NCC5CCOCC5)c([N+](=O)[O-])c4)c(Oc4cnc5[nH]ccc5c4)c3)CC2)=C(c2ccc(Cl)cc2)C1 [Venetoclax] (first compound max 1 µM, 7x7, partner max 1 µM) is ___
Reply: 0.0034

Ask: Need Bliss excess of Cn1cnc2c(F)c(Nc3ccc(Br)cc3Cl)c(C(=O)NOCCO)cc21 [Selumetinib] + CCN(CCO)CCCOc1ccc2c(Nc3cc(CC(=O)Nc4cccc(F)c4)[nH]n3)ncnc2c1 [AZD2811] (first compound max 10 µM, 7x7, partner max 1 µM) , thanks.
Reply: -0.0494

Each recorded value in this set is attributed to the supplement of paper PMC11061612.
